These data points were gathered from patent US9464077B2.

Listed here are compounds together with their documented rate of inhibiting kinase activity v2.
Test system: FGFR3-TACC3_v2 (N-FLAG) fusion polypeptide
measurement.notes: In vitro kinase activity inhibition (HTRF KinEASE-TK)
Type: biochemical, human
condition.parameters: 100 nM, 100 μM ATP
The reply should read as a number followed by its unit.

structure.smiles: COc1cc(OC)c(F)c(COc2cnc(Nc3cnn(C[C@@H](O)CO)c3)nc2)c1F
assayed.system: FGFR3-TACC3_v2 (N-FLAG) fusion polypeptide
measured.parameter: rate of inhibiting kinase activity v2
meas.value: 95%

Challenge: Look up rate of inhibiting kinase activity v2 of COc1cc(OC)c(F)c(COc2cnc(Nc3ccc(N4CCN(C)CC4)cc3)nc2)c1F and report it.
Response given: 95%

Challenge: State its rate of inhibiting kinase activity v2: COc1cc(OC)c(F)c(COc2cnc(Nc3ccc(N4CCC(NCCO)CC4)cc3)nc2)c1F
Response given: 95%

Challenge: Give rate of inhibiting kinase activity v2 for the following compound: COc1cc(OC)c(F)c(COc2cnc(Nc3cc(CN4CCN(C)CC4)n(C)n3)nc2)c1F
Response given: 78%
